# IC50 values compiled below
- measured-target: Monoaminoxidase A (Rattus norvegicus)
- Sequence (P21396 whole entry): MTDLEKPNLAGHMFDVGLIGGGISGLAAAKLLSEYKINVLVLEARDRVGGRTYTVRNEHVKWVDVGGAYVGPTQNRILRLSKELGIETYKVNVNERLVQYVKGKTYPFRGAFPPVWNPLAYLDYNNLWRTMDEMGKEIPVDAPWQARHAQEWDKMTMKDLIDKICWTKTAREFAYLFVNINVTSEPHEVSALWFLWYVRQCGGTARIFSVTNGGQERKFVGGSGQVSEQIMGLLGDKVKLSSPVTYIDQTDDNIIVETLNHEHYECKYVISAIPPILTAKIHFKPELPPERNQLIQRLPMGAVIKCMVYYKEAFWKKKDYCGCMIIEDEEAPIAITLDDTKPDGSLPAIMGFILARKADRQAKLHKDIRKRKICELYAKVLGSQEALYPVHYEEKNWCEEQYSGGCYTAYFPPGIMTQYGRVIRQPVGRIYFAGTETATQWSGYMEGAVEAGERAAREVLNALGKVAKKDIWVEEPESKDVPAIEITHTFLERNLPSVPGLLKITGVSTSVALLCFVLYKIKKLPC
- assay-name: biochemical
- assay-setup: monoaminoxidase A, rat brain homogenate, 14C-tryptamine 0.4 μmol/liter, 37° C., 20 minutes; read-out: Monoaminoxidase inhibition IC50
Answer with a number only, understood to be in nM.

Solved entries (count: 5):
O=c1oc2cc(OS(=O)(=O)c3ccc(Cl)cc3)ccc2c2c1CCCC2 :: 110
CCc1cc(=O)oc2cc(OS(=O)(=O)c3ccc(Cl)cc3)ccc12 :: 30
CCOC(=O)c1cc2ccc(OS(=O)(=O)c3ccc(Cl)cc3)cc2oc1=O :: 540
CCc1c(C)c2ccc(OS(=O)(=O)c3ccc(Cl)cc3)cc2oc1=O :: 23
CC(=O)Nc1ccc(S(=O)(=O)Oc2ccc3c(C)c(C)c(=O)oc3c2)cc1 :: 620

Value of measured IC50 for the entry Cc1cc(=O)oc2cc(OS(=O)(=O)c3ccc(Cl)cc3)ccc12 : 6.5

Value of measured IC50 for the entry O=c1oc2cc(OS(=O)(=O)c3ccc(Br)cc3)ccc2c2c1CCCC2 : 290

Value of measured IC50 for the entry Cc1c(C)c2ccc(OS(=O)(=O)CC(C)C)cc2oc1=O : 5.7

Value of measured IC50 for the entry COC(=O)Cc1c(C)c2ccc(OS(=O)(=O)c3ccc(Br)cc3)cc2oc1=O : 22

* * *

- measured-target: Monoaminoxidase A (Rattus norvegicus)
- assay-name: biochemical
- assay-setup: monoaminoxidase A, rat brain homogenate, 14C-tryptamine 0.4 μmol/liter, 37° C., 20 minutes; read-out: Monoaminoxidase inhibition IC50
measured-quantity: IC50 (nM)
Answer with a number only, understood to be in nM.

Solved entries (count: 2):
CC(C)S(=O)(=O)Oc1ccc2ccc(=O)oc2c1 [Example 45, 7-Hydroxycoumarin isopropanesulfonate] :: 160
Cc1c(C)c2ccc(OS(=O)(=O)c3ccccc3[N+](=O)[O-])cc2oc1=O :: 110

Next item in the queue.
Value of measured IC50 for the entry Cc1c(C)c2ccc(OS(=O)(=O)c3ccc(OC(F)(F)C(F)F)cc3)cc2oc1=O : 160
